// data source = PubChem BioAssay (NCI)

System: HCC-2998 colon
Experimental protocol: NCI tumour cell line growth inhibition, 48 h
Documented TGI across a set of molecules

Exercise: Give TGI (HCC-2998 colon) of the following molecule: CCOc1c2ccsc2c(OCC)c2ccsc12
Key: > 75.5 µM

Exercise: Give TGI (HCC-2998 colon) of the following molecule: CC1=CC=NN2C(=O)[C@H](C)C2C1 (some centres not stated)
Key: > 100 µM

Exercise: Give TGI (HCC-2998 colon) of the following molecule: CCNC(=O)C[C@@H]1N=C(c2ccc(Cl)cc2)c2cc(OC)ccc2-n2c(C)nnc21
Key: > 100 µM

Exercise: Give TGI (HCC-2998 colon) of the following molecule: CCCC1NC(=O)C(CC(C)C)NC(=O)c2cccc(n2)C(=O)NC(CC(C)C)C(=O)NC(CCC)C(=O)NC(C(=O)OC)CCCCNC1=O (configuration not stated)
Key: 41.7 µM

Exercise: Give TGI (HCC-2998 colon) of the following molecule: OC1(c2ccccc2)CC2CCC(C1)N2CCc1ccccc1 (configuration not stated)
Key: > 100 µM

====

Documented GI50 across a set of compounds
Tested on: OVCAR-5 ovarian
Experimental protocol: NCI tumour cell line growth inhibition, 48 h

Consider the reported GI50 for these compounds:
[[record]]
smiles_data = "CCn1c(=O)c(-c2ccn[nH]2)cc2c(C)nc(N)nc21"
tested_target = "OVCAR-5 ovarian"
measured_quantity = "GI50"
result = "0.539 µM"

[[record]]
smiles_data = "O=C(Nc1ccc(S(=O)(=O)Nc2nccs2)cc1)c1cccnc1Nc1cccc(Cl)c1"
tested_target = "OVCAR-5 ovarian"
measured_quantity = "GI50"
result = "17.6 µM"

[[record]]
smiles_data = "Oc1c(CN2CCC(N3CCOCC3)CC2)cc(Cc2cc(CN3CCC(N4CCOCC4)CC3)c(O)c3ncccc23)c2cccnc12"
tested_target = "OVCAR-5 ovarian"
measured_quantity = "GI50"
result = "2.14 µM"

[[record]]
smiles_data = "CN(C)/[N+]([O-])=N/Oc1cc(Nc2cccc(C(=O)O)c2)c([N+](=O)[O-])cc1[N+](=O)[O-]"
tested_target = "OVCAR-5 ovarian"
measured_quantity = "GI50"
result = "> 100 µM"

[[record]]
smiles_data = "CC1=C(C)C(=O)c2c(c(C(=O)c3ccccc3)c3nc4ccccc4n3c2C)C1=O"
tested_target = "OVCAR-5 ovarian"
measured_quantity = "GI50"
result = "> 100 µM"


Exercise: Give GI50 (OVCAR-5 ovarian) of the following compound: OCCN(CCO)N=Nc1ccc(-c2nc3ccccc3[nH]2)cc1
Key: > 100 µM

Exercise: Give GI50 (OVCAR-5 ovarian) of the following compound: CCCCCCCCCCCCN1C(C)=CS/C1=C\C=C\c1scc(C)[n+]1CCCCCCCCCCCC
Key: 2.3 µM

Exercise: Give GI50 (OVCAR-5 ovarian) of the following compound: CCc1ccc(-c2nnc(COc3ccc(-c4nc5ccc(C)cc5[nH]4)cc3OC)o2)cc1
Key: 5.21 µM

Exercise: Give GI50 (OVCAR-5 ovarian) of the following compound: CCC1=C(C)/C(=C/c2[nH]c(C)c(C(=O)CCCCC(=O)OC)c2C)N=C1c1ccc[nH]1
Key: 21.1 µM

Exercise: Give GI50 (OVCAR-5 ovarian) of the following compound: COc1ccc(C(=O)Cn2c(C(=O)c3ccc(OC)cc3)nc3ccccc32)cc1
Key: > 25.1 µM

Exercise: Give GI50 (OVCAR-5 ovarian) of the following compound: Cn1ccnc1C(=O)/C=C/c1ccc(CC(=O)Nc2ccc(Cl)cc2)cc1
Key: 9.97 µM

Exercise: Give GI50 (OVCAR-5 ovarian) of the following compound: CC/C=C\C[C@H](O)C/C=C1/C(=O)C=C[C@@H]1C/C=C\CCCC(=O)NC(C)C
Key: 4.55 µM

Exercise: Give GI50 (OVCAR-5 ovarian) of the following compound: Cc1ccc(Nc2nc(NCCO)c3ccccc3n2)cc1C
Key: 4.29 µM

====

Tested on: MALME-3M melanoma
Experimental protocol: NCI tumour cell line growth inhibition, 48 h
Documented TGI across a set of compounds
# value in µM; strip the unit string

Consider the reported TGI for these compounds:
[[record]]
compound = "O=C(Nc1ccc(Cl)c([N+](=O)[O-])c1)Nc1nc2ccccc2s1"
recorded_number = 7.36

[[record]]
compound = "CN1CCN(Cc2ccc(-c3cc4ncnc(Nc5ccc(OCc6cccc(F)c6)c(Cl)c5)c4s3)o2)CC1"
recorded_number = 9.69

[[record]]
compound = "C=C1C(=O)O[C@H]2[C@H]1CC/C(COC(=O)C(=O)c1c[nH]c3ccccc13)=C\\CC[C@@]1(C)O[C@@H]21"
recorded_number = 4.33


With those in mind, consider the next compound.
Exercise: Give TGI (MALME-3M melanoma) of the following compound: COc1ccc(-c2ccc(C3CC(c4ccc(O)cc4)=NN3)o2)c([N+](=O)[O-])c1 (centres undefined)
Key: 51.3

====

Test system: SF-295 CNS
Experimental protocol: NCI tumour cell line growth inhibition, 48 h; in the data active = GI50 below about 0.43 µM; inactive = the rest
Write down the outcome that applies. Available outcomes: active, inactive

Here's what some known entries look like.
[[record]]
smiles_data = "CCn1c(=O)c(-c2ccn[nH]2)cc2c(C)nc(N)nc21"
qualitative_label = "inactive"

[[record]]
smiles_data = "CCCCCCCCCCCCN1C(C)=CS/C1=C\\C=C\\c1scc(C)[n+]1CCCCCCCCCCCC"
qualitative_label = "inactive"

[[record]]
smiles_data = "Nc1ccccc1C#CC#Cc1ccccc1N"
qualitative_label = "inactive"

[[record]]
smiles_data = "Oc1ccc(C(c2ccccc2)(c2ccccc2)c2ccccc2)cc1"
qualitative_label = "inactive"

[[record]]
smiles_data = "COc1ccc(C(=O)Cn2c(C(=O)c3ccc(OC)cc3)nc3ccccc32)cc1"
qualitative_label = "inactive"


Exercise: Status in this test for Cc1ccc(Nc2nc(NCCO)c3ccccc3n2)cc1C ?
Key: inactive

Exercise: Status in this test for Nc1c(C(=O)Nc2ccccc2)sc2nc3c(cc12)CCCCCC3 ?
Key: active

Exercise: Status in this test for CS(=O)(=O)c1ccc(Oc2cc(F)cc(C#N)c2)c2c1[C@H](O)[C@H](F)[C@@H]2F ?
Key: inactive

====

Documented TGI across a set of compounds
Tested on: NCI/ADR-RES ovarian
Experimental protocol: NCI tumour cell line growth inhibition, 48 h
Where a SMILES comes first, the peptide text is derived from it.

Consider the reported TGI for these compounds:
[[record]]
compound = "CC1NC(=O)CNC(=O)CNC(=O)C(Cc2ccc(O)cc2)NC(=O)C(C(C)C)NC(=O)C(C)NC1=O (stereo not drawn) (cyclo(GGAAVY); configuration not given here)"
measured_quantity = "TGI"
result = "> 100 µM"

[[record]]
compound = "CCOP(=O)(OCC)C(NC(=O)OCC(Cl)(Cl)Cl)n1nnc(C(=O)OC)c1C(=O)OC (stereo not drawn)"
measured_quantity = "TGI"
result = "> 100 µM"

[[record]]
compound = "C=C1C(=O)O[C@@H]2[C@H]3O[C@]3(C)CCC=C(C)CC[C@@H]12"
measured_quantity = "TGI"
result = "45.3 µM"

[[record]]
compound = "NC(=O)NC(=O)c1cnccn1"
measured_quantity = "TGI"
result = "> 100 µM"

[[record]]
compound = "CC/C(=N\\NC(=O)c1cccnc1)c1ccc2c(c1)OCCO2"
measured_quantity = "TGI"
result = "> 100 µM"


Exercise: Name the recorded TGI for COc1cc2oc(=O)cc(C)c2cc1[N+](=O)[O-] .
Key: > 79.3 µM

Exercise: Name the recorded TGI for Cc1ccc2c(c1)SSSSS2 .
Key: 66.7 µM

Exercise: Name the recorded TGI for COc1c2c(c(OC)c3c1c(=O)c1ccccc1n3C)OCO2 .
Key: > 100 µM

====

Tested on: 786-0 renal
Experimental protocol: NCI tumour cell line growth inhibition, 48 h
Documented GI50 across a set of compounds

[[record]]
smiles_data = "O=[N+]([O-])c1ccc(N2CCN(Cc3ccccc3)CC2)c2c1no[n+]2[O-]"
measured_quantity = "GI50"
result = "1.72 µM"


Exercise: Name the recorded GI50 for CN(C)CCNC(=O)c1ccc(Nc2nc3ccccc3c3occc23)cc1 .
Key: 2.57 µM

Exercise: Name the recorded GI50 for COc1ccc(C(=O)Cn2c(C(=O)c3ccc(OC)cc3)nc3ccccc32)cc1 .
Key: 4.54 µM

====

Test system: HL-60(TB) leukemia
Experimental protocol: NCI tumour cell line growth inhibition, 48 h
Documented TGI across a set of compounds
# value in µM; strip the unit string

[[record]]
compound = "CC(C(=O)N1C(=O)N(C(=O)C(C)C(O)c2ccccc2)C(c2ccccc2)C1c1ccccc1)C(O)c1ccccc1 (stereo not given)"
measured_quantity = "TGI"
recorded_number = 6.79


With those in mind, consider the next compound.
Exercise: Name the recorded TGI for S=c1[nH]nc(COc2ccc3c(c2)CCCC3)n1/N=C/c1ccc(Cl)cc1 .
Key: 40.7
